# key: entry, value: inhibition at 0.2 µM
target: CaMKK2 (Homo sapiens); assay: CaMKK1/2 biochemical assay, 32P radiometric kinase assay (CaMKK2); conditions: 0.2 μM compound; read-out: CaMKK2 % inhibition @ concentrations shown, 0.2 μM
Quick reminder: number only, in %, skip the unit.

### Prompt Look up inhibition at 0.2 µM: `COC(=O)[C@@H]1CCC(=O)N1c1ccc2[nH]nc(-c3cc4ccccc4[nH]3)c2c1`
### Response 38

### Prompt // same read-out, input: `O=C1OCCN1c1ccc2[nH]nc(-c3cc4ccc(Cl)cc4[nH]3)c2c1`
### Response 85

### Prompt Likewise for `CN(C)CCNC(=O)c1ccc(/C=C/c2n[nH]c3ccc(N4CCOC4=O)cc23)cc1` ?
### Response 75

### Prompt Okay, and `O=C1OCCN1c1ccc2[nH]nc(-c3ccc4ccccc4c3)c2c1` ?
### Response 67

### Prompt // query: `C[C@H]1COC(=O)N1c1ccc2[nH]nc(-c3cc4ccccc4[nH]3)c2c1`
### Response 90

### Prompt Request: `O=C1OCCN1c1ccc2[nH]nc(-c3ccc(Cl)cc3)c2c1`
### Response 41

### Prompt Repeat for the following compound: `COc1ccc2[nH]c(-c3n[nH]c4ccc(N5CCOC5=O)cc34)cc2c1`
### Response 84

### Prompt // repeat for `O=C1OCCCN1c1ccc2[nH]nc(-c3cc4ccccc4[nH]3)c2c1` and report
### Response 37

### Prompt Quick one: `O=C1OCCN1c1ccc2[nH]nc(-c3cccc(Cl)c3)c2c1`
### Response 44

###

Examples of molecules with documented inhibition at 0.2 µM follow.
target: CaMKK2 (Homo sapiens, UniProt Q96RR4); assay: CaMKK1/2 biochemical assay, 32P radiometric kinase assay (CaMKK2); details: 0.2 μM compound; read-out: CaMKK2 % inhibition @ concentrations shown, 0.2 μM
Give your result in % as a bare value.

Worked cases, answers included:
chemicalString | inhibition at 0.2 µM [%]
O=C1OCCN1c1ccc2[nH]nc(-c3ccc(-c4ccccc4)cc3)c2c1 | 59
COc1cccc2[nH]c(-c3n[nH]c4ccc(N5CCOC5=O)cc34)cc12 | 84
O=C1OCCN1c1ccc2[nH]nc(-c3cccc(-c4ccccc4)c3)c2c1 | 36

### Prompt What does the record list as inhibition at 0.2 µM for `COc1ccc(/C=C/c2n[nH]c3ccc(N4CCOC4=O)cc23)cc1` ?
### Response 81

### Prompt Also `COc1cccc2cc(-c3n[nH]c4ccc(N5CCOC5=O)cc34)[nH]c12` ?
### Response 61

### Prompt Also need `O=C1OC[C@H](CO)N1c1ccc2[nH]nc(-c3cc4ccccc4[nH]3)c2c1` , thanks.
### Response 68

### Prompt Further, for `O=C1OC[C@@H](c2ccccc2)N1c1ccc2[nH]nc(-c3cc4ccccc4[nH]3)c2c1` ?
### Response 50

### Prompt Try the molecule `O=C1OC[C@@H](CO)N1c1ccc2[nH]nc(-c3cc4ccccc4[nH]3)c2c1`
### Response 57

###

Target: CaMKK1 (Homo sapiens, UniProt Q8N5S9)
Test: CaMKK1/2 biochemical assay, 32P radiometric kinase assay (CaMKK1)
Conditions: 0.5 μM
Excerpt: The following is an example of a CaMKK1/2-biochemical assay. […] The kinase activity was detected by the filter binding method.
quantityMeasured: Biochemical Data CaMKK1, inh @ 0.5 μM

chemicalString | Biochemical Data CaMKK1, inh @ 0.5 μM
C=Cc1n[nH]c2ccc(N3CCOC3=O)cc12 | 12% inh @ 0.5 μM
O=C1OCCN1c1ccc2[nH]nc(-c3ccccc3)c2c1 | <5% inh @ 0.5 μM
O=C(O)c1n[nH]c2ccc(N3CCOC3=O)cc12 | <5% inh @ 0.5 μM
O=C1OCCN1c1ccc2[nH]nc(C#Cc3ccccn3)c2c1 | 14% inh @ 0.5 μM

### Prompt Sample `O=C1OCCN1c1ccc2[nH]nc(-c3ccncc3)c2c1` — what was its Biochemical Data CaMKK1, inh @ 0.5 μM?
### Response 7% inh @ 0.5 μM

### Prompt For `CCOC(=O)c1n[nH]c2ccc(N3CCOC3=O)cc12` then?
### Response <5% inh @ 0.5 μM

### Prompt Record: `O=C1OCCN1c1ccc2[nH]nc(-c3cccnc3)c2c1`
### Response <5% inh @ 0.5 μM
